Kindly state kon for each of the entries shown.
molecular target: T1, Taq DNA polymerase (Thermus aquaticus, UniProt P19821 1-832); assay: AMC sensor, antibody immobilised
T1 construct: also called Taq enzyme; Taq DNA enzyme
T1 sequence (P19821 whole entry): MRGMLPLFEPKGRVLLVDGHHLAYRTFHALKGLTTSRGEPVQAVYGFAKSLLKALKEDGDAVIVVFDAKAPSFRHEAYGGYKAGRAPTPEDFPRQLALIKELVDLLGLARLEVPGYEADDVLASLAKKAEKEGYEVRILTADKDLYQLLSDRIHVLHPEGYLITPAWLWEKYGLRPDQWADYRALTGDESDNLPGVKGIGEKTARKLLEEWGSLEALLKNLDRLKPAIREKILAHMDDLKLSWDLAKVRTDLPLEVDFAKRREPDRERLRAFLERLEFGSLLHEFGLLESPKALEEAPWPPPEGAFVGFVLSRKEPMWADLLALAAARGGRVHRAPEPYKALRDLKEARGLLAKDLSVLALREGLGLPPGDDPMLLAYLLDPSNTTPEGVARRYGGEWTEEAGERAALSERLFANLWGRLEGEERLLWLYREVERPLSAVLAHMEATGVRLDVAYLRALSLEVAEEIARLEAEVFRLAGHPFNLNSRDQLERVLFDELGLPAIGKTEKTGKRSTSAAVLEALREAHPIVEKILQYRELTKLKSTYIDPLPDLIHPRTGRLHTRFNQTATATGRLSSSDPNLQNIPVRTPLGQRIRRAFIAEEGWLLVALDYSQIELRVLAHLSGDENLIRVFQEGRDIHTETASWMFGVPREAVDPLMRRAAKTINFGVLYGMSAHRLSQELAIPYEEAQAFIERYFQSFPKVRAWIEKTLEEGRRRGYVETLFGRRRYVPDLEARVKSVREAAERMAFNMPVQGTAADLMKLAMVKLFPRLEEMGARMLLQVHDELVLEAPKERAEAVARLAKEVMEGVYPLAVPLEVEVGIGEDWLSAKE

Inquiry: So what does the record say about kon for Mutation 1-10 (antibody, V domains shown, Mutation 1 background; CDRs built) VH: QVQLQQPGAELVKPGASVRLSCQTSVNTFSTYYIYWVKQRPGEGLEWIGGINPTSGGPVFNEKFKSKATLTVDTSSSTAYMQLSSLTSVDSAVYYCTRSIVRRGYYFDYWGQGTALTVSS VL: DIQMTQTTSSLSASLGDRVTISCRASQDIQNYINWYQQKPDGTIKLLIYYTSRLQSGVPSRFSGSGSGTDYSLTIANLEQEDIATYFCQQDDTIPITFGAGTKVELKR ?
Reply text: 98000 M⁻¹ s⁻¹

Inquiry: Look up kon for this binder: Mutation 1-44 (antibody, V domains shown, Mutation 1 background; CDRs built) VH: QVQLQQPGAELVKPGASVRLSCQTSVNTFSTYYIYWVKQRPGEGLEWIGGVNPTSGGPVFNEKFKSKATLTVDTSSSTAYMQLSSLTSVDSAVYYCTRSLIRRGYYFDYWGQGTALTVSS VL: DIQMTQTTSSLSASLGDRVTISCRASQDIQNYLNWYQQKPDGTIKLLIYYTSRLNSGLPSRFSGSGSGTDYSLTIANLEQEDIATYFCQQDDTLPVTFGAGTKVELKR
Reply text: 369000 M⁻¹ s⁻¹
